- Test system: HCT-15 colon
- protocol.text: NCI tumour cell line growth inhibition, 48 h
Listed below: GI50 values for each entry.
parameter.measured: GI50

- structure: "COc1ccc(-c2cc(C(=O)N=Nc3c(O)[nH]c4ccc(Br)cc34)c3ccccc3n2)cc1"
  tested.target: "HCT-15 colon"
  test.value: "3.23 µM"
- structure: "COc1ccc2[nH]c(O)c(N=NC(=O)COc3ccc(NC(=O)Nc4ccc(Cl)cc4)cc3)c2c1"
  tested.target: "HCT-15 colon"
  test.value: "> 100 µM"
- structure: "CC[C@]12C=CCN3CC[C@@]4(c5ccc(OC)cc5N(C)[C@H]4[C@@](O)(C(=O)OC)[C@@H]1OC(=O)CCCC[P+](C1CCCCC1)(C1CCCCC1)C1CCCCC1)[C@@H]32"
  tested.target: "HCT-15 colon"
  test.value: "16.1 µM"
- structure: "CCOC(=O)c1ccc(NC(=S)NC(=O)c2ccc(NC(=O)C(C)C)cc2OC)cc1"
  tested.target: "HCT-15 colon"
  test.value: "4.24 µM"

* * *

- System: MDA-MB-468 breast
- protocol.text: NCI tumour cell line growth inhibition, 48 h
Returns true if the recorded TGI is greater than or equal to 4 µM, and false otherwise.

- molecule: "Clc1cccc(CNc2c3ccccc3nc3ccccc23)c1"
  category.label: "false"
- molecule: "NCCCNc1nc2ccccc2c2c(=O)c3cccc(Cl)c3sc12"
  category.label: "false"
- molecule: "C=CCNC1=C2C[C@@H](C)C[C@H](OC)[C@H](O)[C@@H](C)/C=C(\\C)[C@H](OC(N)=O)[C@@H](OC)/C=C\\C=C(/C)C(=O)NC(=CC1=O)C2=O"
  category.label: "false"
- molecule: "COc1ccc(-c2cc(C(=O)N=Nc3c(O)[nH]c4ccc(Br)cc34)c3ccccc3n2)cc1"
  category.label: "true"
- molecule: "CCOc1ccc2ncc(C#Cc3cncc(C(=O)Nc4ccc(CN5CCN(C)CC5)c(C(F)(F)F)c4)c3)n2n1"
  category.label: "true"
- molecule: "CCN(CC)CCN1c2nc3ccccc3cc2Sc2cc3ccccc3nc21"
  category.label: "true"
- molecule: "COc1ccc(S(=O)(=O)Nc2c(/C=C\\c3cc(OC)c(OC)c(OC)c3)ccc(OC)c2O)cc1"
  category.label: "true"
- molecule: "Cn1c(=O)c(Oc2ccc(F)cc2F)cc2cnc(N[C@@H]3CCOC3)nc21"
  category.label: "true"
- molecule: "COc1ccc2c(O)c(/C=C3\\N=Nc4ncccc43)oc2c1C[C@@H]1CCNC[C@H]1F"
  category.label: "false"
- molecule: "O=C(NCCOCCOCCOCCNC(=O)c1cc2c(o1)C(=O)c1ccccc1C2=O)NC12CC3CC(CC(C3)C1)C2"
  category.label: "true"
- molecule: "CCOc1ccc(C(C[N+](=O)[O-])Sc2ccccc2N)cc1 (centres undefined)"
  category.label: "true"
- molecule: "CCC(=O)N1C/C(=C/c2ccc(Br)cc2)C(=O)/C(=C/c2ccc(Br)cc2)C1"
  category.label: "false"
- molecule: "CCOC(=O)c1ccc(NC(=S)NC(=O)c2ccc(NC(=O)C(C)C)cc2OC)cc1"
  category.label: "true"
- molecule: "C#C[C@@]1(O)[C@@H](CO)O[C@@H](n2cc(C(F)(F)F)c3c(N)ncnc32)[C@@H]1O"
  category.label: "false"
